test system: LOC_OS02G45750-cb003; experiment: thermal shift delta Tm vs DMSO control; higher = stronger stabilization (binding); conditions: 12.5 µM; protein concentration 2 µM;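 note: purified Escherichia coli-expressed rice kinase domain construct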
Where a name gives a salt, the structure may show the parent alone.
Categorized via thermal shift delta Tm: class 0 = under 0.6 °C, class 1 = from 0.6 °C up to 2 °C, class 2 = 2 °C and over

| molecule | assay-system | class |
| --- | --- | --- |
| CC(C)(C)c1nc(-c2cccc(NS(=O)(=O)c3c(F)cccc3F)c2F)c(-c2ccnc(N)n2)s1 | LOC_OS02G45750-cb003 | class 2 |
| Cc1cc2c(F)c(Oc3ncnn4cc(OC[C@@H](C)O)c(C)c34)ccc2[nH]1 | LOC_OS02G45750-cb003 | class 1 |
| COc1ncc(-c2ccc3nccc(-c4ccnnc4)c3c2)cc1NS(=O)(=O)c1ccc(F)cc1F | LOC_OS02G45750-cb003 | class 1 |
| COc1cc(N2CCC(N3CCN(C)CC3)CC2)ccc1Nc1ncnc(Nc2ccccc2S(=O)(=O)C(C)C)n1 | LOC_OS02G45750-cb003 | class 1 |
| COc1ccc(Cl)c(Nc2nc3ccccc3nc2NS(=O)(=O)c2cccc(NC(=O)C(C)(C)N)c2)c1 | LOC_OS02G45750-cb003 | class 1 |
| CCn1c2ccccc2c2cc(Nc3ccnc(NCCCN4CCOCC4)n3)ccc21 | LOC_OS02G45750-cb003 | class 1 |
| Cc1cc(CS(=O)(=O)c2ccccc2)cc(OCc2ccc(CN3CCC[C@@H]3CO)cc2)c1 | LOC_OS02G45750-cb003 | class 0 |
| COc1ccc(Oc2cc(NCCC(F)(F)F)c3ncc(-c4ccc(C(=O)NC5CC5)c(C)c4)n3n2)c(F)c1F | LOC_OS02G45750-cb003 | class 1 |
| CN1CCC(COc2cnc(-c3cccc(Cn4nc(-c5cccc(C#N)c5)ccc4=O)c3)nc2)CC1 | LOC_OS02G45750-cb003 | class 0 |
| COc1ccc(-c2ccc3ncc4c(c3c2)n(-c2ccc(N3CCNCC3)c(C(F)(F)F)c2)c(=O)n4C)cn1 | LOC_OS02G45750-cb003 | class 1 |
| CCn1nc(C2CCN(C(=O)CCO)CC2)nc1-c1cnc(N)c(-c2nnc(C(C)(C)C)o2)n1 | LOC_OS02G45750-cb003 | class 2 |
| Cc1nc2ccc(-n3ncc(C(=O)c4cc5ccccc5[nH]4)c3N)cc2[nH]1 | LOC_OS02G45750-cb003 | class 2 |
| O=C(Nc1cnn2ccc(N3CCC[C@@H]3c3cc(F)ccc3F)nc12)N1CC[C@H](O)C1 [Larotrectinib (LOXO-101) sulfate] | LOC_OS02G45750-cb003 | class 1 |
| C=C[C@@](C)(/C=C/c1ccc(O)cc1)CCC=C(C)C | LOC_OS02G45750-cb003 | class 0 |
| C[C@H](NC(=O)/C(C#N)=C/c1cccc(Br)n1)c1ccccc1 | LOC_OS02G45750-cb003 | class 0 |
| CNC(=O)c1ccccc1Nc1nc(Nc2ccc(N3CCOCC3)cc2OC)ncc1Cl | LOC_OS02G45750-cb003 | class 1 |
| COc1c(C)c(C(=O)c2ccc(N)c(C(=O)O)c2)n2ccccc12 | LOC_OS02G45750-cb003 | class 0 |
